- TARGET_OR_TEST_SYSTEM: Bcl-2-like protein 10 (Homo sapiens) (UniProt Q9HD36)
- Sequence (Q9HD36 whole entry, looked up): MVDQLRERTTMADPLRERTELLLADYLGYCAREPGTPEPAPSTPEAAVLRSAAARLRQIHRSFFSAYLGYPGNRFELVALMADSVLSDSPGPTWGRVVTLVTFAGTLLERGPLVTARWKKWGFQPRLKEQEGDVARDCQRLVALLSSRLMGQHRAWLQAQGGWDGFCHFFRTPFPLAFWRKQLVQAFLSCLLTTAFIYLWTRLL
- PROTOCOL_DESCRIPTION: TR3 peptide-Bcl-B binding displacers, biochemical primary FP assay, phenotype converters (AID 1240);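 note: 0% = Bcl-B with tracer peptide and DMSO and 100% = tracer peptide lacking Bcl-B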
- CONDITION_NOTES: GST-Bcl-B / FITC-TR3 peptide fluorescence polarization; stronger effect = higher value; compound at 3.75 mg/L
In all, about 50,000 compounds went through this assay and about 800 (1.6%) showed an effect of 50% or more. The list comes from a sample in which strong results are over-represented; it also holds close analogues and randomly drawn compounds.
displacement by entry:
# output: bare number, implied unit %

# count of solved cases: 5
COMPOUND	displacement / %
CC(=O)c1cccc(N2C(=O)C3CCCCC3C2=O)c1 (stereo not drawn)	-12.9
NC(=O)c1cccc(N=Cc2cc(Cl)cc(Cl)c2O)c1	145
O=C(COc1ccc(Cl)cc1)N/N=C/c1ccc(I)o1	-6
Nc1ccc2c(c1)C(=O)c1ccccc1C2=O	6.9
CCN1CCc2c(sc(NC(=O)Nc3ccc(Cl)c(Cl)c3)c2C(N)=O)C1	111

(Q) I would be grateful if you could share the reported displacement for CCn1nnnc1-c1ccc(OC)c(S(=O)(=O)Nc2ccc(Cl)cc2)c1 .
(A) 9.3

(Q) Entry OC(COCc1ccc2c(c1)OCO2)CN1CCC(Cc2ccccc2)CC1 (stereo not drawn) please
(A) 0.1

(Q) Entry CC(=O)N(c1ccc(Br)cc1)C1SC(=O)N(c2cccc(C)c2)C1=O (stereo not drawn) please
(A) -0.5

(Q) Entry Cc1ccc2nc(-c3ccc(OCC(=O)N/N=C/c4ccc([N+](=O)[O-])o4)cc3)cc(-c3ccccc3)c2c1 please
(A) -16.7

(Q) Entry O=C(/C=C/c1ccc(F)cc1)c1nc2ccccc2s1 please
(A) -6

(Q) Entry O=C1NC(=S)N/C1=C\c1ccc(Oc2ccc([N+](=O)[O-])cn2)cc1 please
(A) 101

(Q) Entry O=C1NC(=S)NC(=O)C1=Cc1ccc(Oc2ccc([N+](=O)[O-])cn2)cc1 please
(A) 10.5

(Q) Entry Cc1ccc(S(=O)(=O)N/N=C/c2ccc(-c3ccc([N+](=O)[O-])cc3C)o2)cc1 please
(A) 52.8

(Q) Entry CCOC(=O)c1sc(NC(=O)c2ccc(Cl)cc2Cl)nc1C please
(A) 17

* * *

- TARGET_OR_TEST_SYSTEM: Bcl-2-like protein 10 (Homo sapiens)
- PROTOCOL_DESCRIPTION: TR3 peptide-Bcl-B binding displacers, biochemical primary FP assay, phenotype converters (AID 1240);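 note: 0% = Bcl-B with tracer peptide and DMSO and 100% = tracer peptide lacking Bcl-B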
- CONDITION_NOTES: GST-Bcl-B / FITC-TR3 peptide fluorescence polarization; stronger effect = higher value; compound at 3.75 mg/L
The whole screen tested about 50,000 compounds, of which about 800 (1.6%) showed an effect of 50% or more. For the sample, strong results were picked, then their nearest neighbours and some compounds at random.
READOUT_NAME: displacement (%)
# output: bare number, implied unit %

# count of solved cases: 5
O=C(COc1ccccc1[N+](=O)[O-])Nc1ccc2oc(-c3ccccc3Br)nc2c1 5.2
O=C(COc1ccccc1[N+](=O)[O-])Nc1ccc(-c2nc3ccccc3o2)cc1 -1.3
Cc1cc(C)c2oc(-c3ccc(NC(=O)COc4ccccc4[N+](=O)[O-])cc3)nc2c1 89.3
S=C1NC(c2ccccc2)=NCN1c1ccccc1 1.8
COCCOC(=O)c1c(C)oc2ccc(OCc3c(F)c(F)c(F)c(F)c3F)cc12 10.8

(Q) I would be grateful if you could share the reported displacement for CNC(=O)c1cc2cc(OC)ccc2n1CCN(C)C .
(A) -11.4

(Q) Entry Cc1cc(C)c2oc(-c3cccc(NC(=O)COc4ccccc4[N+](=O)[O-])c3)nc2c1 please
(A) -24.2

(Q) Entry O=C(COc1ccccc1[N+](=O)[O-])Nc1ccc2oc(-c3ccccc3F)nc2c1 please
(A) 2.9

(Q) Entry O=C(N/N=C/c1ccc(O)cc1)c1cc(C2CC2)[nH]n1 please
(A) -10.1

(Q) Entry COc1ccc2c(c1)cc(C(=O)NN)n2C please
(A) 67.4

* * *

- TARGET_OR_TEST_SYSTEM: Bcl-2-like protein 10 (Homo sapiens)
- PROTOCOL_DESCRIPTION: TR3 peptide-Bcl-B binding displacers, biochemical primary FP assay, phenotype converters (AID 1240);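 note: 0% = Bcl-B with tracer peptide and DMSO and 100% = tracer peptide lacking Bcl-B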
- CONDITION_NOTES: GST-Bcl-B / FITC-TR3 peptide fluorescence polarization; stronger effect = higher value; compound at 3.75 mg/L
Among all 50,000 compounds or so, about 800 (1.6%) showed an effect of 50% or more. The full list was thinned out, with strong results kept by preference.
displacement by entry:
# output: bare number, implied unit %

MOLECULE	TARGET_OR_TEST_SYSTEM	displacement, %
CN(C)c1ccc(NS(=O)(=O)c2ccc(N3C(=O)CCC3=O)cc2)cc1	Bcl-2-like protein 10 (Homo sapiens)	19.2
O=C1CC(N(Cc2ccco2)C(=S)NCCc2ccccc2)C(=O)N1c1ccc(F)cc1 (stereo unspecified)	Bcl-2-like protein 10 (Homo sapiens)	27.4
CCc1cccc(C)c1NC1C=CS(=O)(=O)C1 (stereo unspecified)	Bcl-2-like protein 10 (Homo sapiens)	52.3
COc1ccc(/C=C2/C=C(c3ccc(OC)c(OC)c3)OC2=O)cc1OC	Bcl-2-like protein 10 (Homo sapiens)	189

(Q) I would be grateful if you could share the reported displacement for Cc1ccc(NC2C=CS(=O)(=O)C2)cc1C (stereo unspecified) .
(A) 6.7

(Q) Entry Cc1ccc2nc(-c3ccc(NC(=O)c4ccc(S(=O)(=O)N5CCCC5)cc4)cc3)sc2c1 please
(A) -1.5

(Q) Entry COc1ccc(/C=C2/C=C(c3ccccc3)OC2=O)cc1 please
(A) -15.2

(Q) Entry COC(=O)c1c(C)oc2ccc(OC(=O)c3ccc(OC)c(OC)c3)cc12 please
(A) 10.8

(Q) Entry O=C1OC(c2ccccc2)=C/C1=C/c1ccc2c(c1)OCO2 please
(A) -0.2

(Q) Entry COc1ccc(Oc2coc3cc(OC(C)=O)ccc3c2=O)cc1 please
(A) 11.2

(Q) Entry C/C(=N/NC(=O)c1cccnc1)c1cc(O)ccc1O please
(A) -12

* * *

- TARGET_OR_TEST_SYSTEM: Bcl-2-like protein 10 (Homo sapiens) (UniProt Q9HD36)
- PROTOCOL_DESCRIPTION: TR3 peptide-Bcl-B binding displacers, biochemical primary FP assay, phenotype converters (AID 1240);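 note: 0% = Bcl-B with tracer peptide and DMSO and 100% = tracer peptide lacking Bcl-B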
- CONDITION_NOTES: GST-Bcl-B / FITC-TR3 peptide fluorescence polarization; stronger effect = higher value; compound at 3.75 mg/L
Among all 50,000 compounds or so, about 800 (1.6%) showed an effect of 50% or more. The full list was thinned out, with strong results kept by preference.
READOUT_NAME: displacement (%)
# output: bare number, implied unit %

(Q) I would be grateful if you could share the reported displacement for COc1ccccc1OCCOc1ccc(/C=C2/SC(=S)N(C)C2=O)cc1 .
(A) 3.9

(Q) Entry CN1C(=O)/C(=C\c2ccccc2OCCOc2ccc(Br)cc2)SC1=S please
(A) 2.3

(Q) Entry CN1C(=O)/C(=C\c2ccc(OCCOc3ccc([N+](=O)[O-])cc3)cc2)SC1=S please
(A) -0.4

(Q) Entry CN1C(=O)/C(=C\c2ccccc2OCCOc2ccc([N+](=O)[O-])cc2)SC1=S please
(A) 133

(Q) Entry COc1cc(/C=C2/SC(=S)N(C)C2=O)ccc1OCCOc1ccc([N+](=O)[O-])cc1 please
(A) 74.5

* * *

- TARGET_OR_TEST_SYSTEM: Bcl-2-like protein 10 (Homo sapiens)
- PROTOCOL_DESCRIPTION: TR3 peptide-Bcl-B binding displacers, biochemical primary FP assay, phenotype converters (AID 1240);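 note: 0% = Bcl-B with tracer peptide and DMSO and 100% = tracer peptide lacking Bcl-B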
- CONDITION_NOTES: GST-Bcl-B / FITC-TR3 peptide fluorescence polarization; stronger effect = higher value; compound at 3.75 mg/L
The campaign covered roughly 50,000 compounds. About 800 (1.6%) showed an effect of 50% or more. The sample as a whole holds a higher share of strong results than the screen did.
READOUT_NAME: displacement

Cc1cccc(N2C(=O)NC(=O)/C(=C/c3ccc(-c4ccc(C(=O)O)cc4)o3)C2=O)c1 -58.8%
CN1C(=O)C(=Cc2ccc(-c3ccc(Cl)c(C(=O)O)c3)o2)C(=O)N(C)C1=O 14.5%
Cc1ccc(-c2noc(-c3cccc([N+](=O)[O-])c3C)n2)cc1 6.9%
Cc1cccc(-c2noc(-c3ccc(Br)cc3)n2)c1 -1.7%
Cc1c(-c2nc(-c3ccncc3)no2)cccc1[N+](=O)[O-] 0.7%

(Q) GET /values?readout=displacement&system=Bcl-2-like protein 10 (Homo sapiens)&item= Cc1ccc(-c2nc(-c3cccnc3)no2)cc1[N+](=O)[O-]
(A) 21.4%

(Q) Entry COc1ccc(-c2nc(-c3cc(OC)c(OC)c(OC)c3)no2)cc1OC please
(A) -5.7%

(Q) Entry Cc1cccc(-c2noc(-c3ccc(C)c([N+](=O)[O-])c3)n2)c1 please
(A) 76.1%

(Q) Entry CCOC(=O)c1cc(-c2ccc(C=C3C(=O)N(C)C(=O)N(C)C3=O)o2)ccc1Cl please
(A) 111%

(Q) Entry COc1ccc2c(c1OC)C(=O)N(c1cccc(Cl)c1)C2=O please
(A) -23.7%

Reference for the values: PubChem BioAssay AID1240
